Data provenance is the supplement of paper PMC11780869.

System: Bacillus subtilis
ASSAY EXPLANATION: cleaved RNA product abundance (RNA/gDNA barcode ratio) relative to median wild-type variant (ratio to wild type); higher = more accumulation of the downstream cleavage product
COND: experiment (reporter, strain, medium): exp 4a: truncated aprE reporter, strain BJT201 with 2% xylose (RNase J1 expressed); cleavage site: cggR-gapA (positions -7 to +36 mutated)
Tick Y if cleaved RNA product abundance is 0.1 or greater. Tick N if cleaved RNA product abundance is less than 0.1.

SEQ: ACAGACGAAGGAGCCGCATAGAAGTTATTAAGGGATGAATAATCCCTCAATATAAATTTCTCTCACTTATTTAAA
CATEGORY LABEL: Y

SEQ: ACAGACGAAGGAGCCGCAAAGATGTTATTAAGGGAAGAATAATCCCTCAATATAAATATCTCTCACTTATTTAAA
CATEGORY LABEL: Y

SEQ: ACAGACGAAGGAGCCGCAAAGAAGTTATCAAGTGATGAATAATCCCTCAATATAAATATCTCTCACTTATTTAAA
CATEGORY LABEL: N

SEQ: ACAGACGAAGGAGCCGCAAAGAAGTTATTAAGGGTTGAATAATCCGTCAATATAAATATCTCTCACTTATTTAAA
CATEGORY LABEL: Y

SEQ: ACAGACGAAGGAGCCGCAACGAAGTTATTAAGGGACGAATAATCCCTCAATATAAATATCTCTCACTTATTTAAA
CATEGORY LABEL: Y

SEQ: ACAGACGAAGGAGCCGCAAAGAAGTCATTAAGGGATGAATAATCCCTGAATATAAATATCTCTCACTTATTTAAA
CATEGORY LABEL: Y
